- studySystem: h-GABA-A α5β3γ2 (Homo sapiens, UniProt P18507+P31644)
- test: [3H]flumazenil competition binding assay, membranes of HEK293 cells expressing GABAA receptors
- conditionDescription: displacement of [3H]-Flumazenil 0.5 nM, HEK293 cells expressing human receptors, mean of two determinations; Table 1
Listed next: entries and their corresponding log10(Ki).
quantity: log10(Ki) (log10 of the value in nM)

| compound | log10(Ki) |
| --- | --- |
| CCOc1ccc(-c2cnn(Cc3c(-c4ccc(C)nc4)noc3C)c(=O)c2)cc1 | 1.21 |
| COC1CN(c2cnn(Cc3c(-c4ccc(C)nn4)noc3C)c(=O)c2)C1 | 0.38 |
| Cc1onc(-c2ccc(Cl)nc2)c1Cn1ncc(N2CCO[C@@H](C)C2)cc1=O | 0.64 |
| Cc1ccc(-c2noc(C)c2Cn2ncc(N3CCN(CC(F)(F)F)CC3)cc2=O)cn1 | 1.13 |
| Cc1ccc(-c2noc(C)c2Cn2ncc(N3CCN(C4CC4)CC3)cc2=O)cn1 | 1.14 |
| Cc1ccc(-c2noc(C)c2Cn2ncc(N3CC4(CC(F)CCO4)C3)cc2=O)cn1 (single isomer, unassigned) [Example 274] | 1.20 |
| CO[C@@H]1COC2(C1)CN(c1cnn(Cc3c(-c4ccc(C)nc4)noc3C)c(=O)c1)C2 | 1.91 |
| Cc1ccc(-c2noc(C)c2Cn2ncc(NC3CN(C4CC4)C3)cc2=O)cn1 | 1.11 |
| Cc1ccc(-c2noc(C)c2Cn2ncc(N3CCN(C4CC4)[C@H](C)C3)cc2=O)cn1 | 1.19 |
| Cc1onc(-c2ccc(F)cc2)c1Cn1ncc(N2CCN(C(=O)C3(C)CC3)CC2)cc1=O | 1.55 |
| Cc1ccc(-c2noc(C)c2Cn2ncc(N3CC[C@@H](O)C3)cc2=O)cn1 | 1.03 |
| Cc1onc(-c2ccc(Cl)nc2)c1Cn1ncc(N2CC(OC(F)(F)F)C2)cc1=O | 1.22 |
| Cc1ccc(-c2noc(C)c2Cn2ncc(N(C)CC(C)(C)O)cc2=O)cn1 | -0.22 |
| Cc1ccc(-c2noc(C)c2Cn2ncc(-c3cnn(C4CC4)c3)cc2=O)cn1 | 1.46 |
| Cc1ccc(-c2noc(C)c2Cn2ncc(N3CCC(n4c(C)nnc4C)CC3)cc2=O)cn1 | 1.03 |
| COc1cc(-c2cnn(Cc3c(-c4ccc(C)nc4)noc3C)c(=O)c2)cnc1OC | 1.47 |
| COc1ncc(-c2cnn(Cc3c(-c4ccc(C)nc4)noc3C)c(=O)c2)cc1F | 1.46 |
